tgt: IL-23R (Homo sapiens, UniProt Q5VWK5)
Construct: host or cells: HEK293
Sequence (Q5VWK5 24-629): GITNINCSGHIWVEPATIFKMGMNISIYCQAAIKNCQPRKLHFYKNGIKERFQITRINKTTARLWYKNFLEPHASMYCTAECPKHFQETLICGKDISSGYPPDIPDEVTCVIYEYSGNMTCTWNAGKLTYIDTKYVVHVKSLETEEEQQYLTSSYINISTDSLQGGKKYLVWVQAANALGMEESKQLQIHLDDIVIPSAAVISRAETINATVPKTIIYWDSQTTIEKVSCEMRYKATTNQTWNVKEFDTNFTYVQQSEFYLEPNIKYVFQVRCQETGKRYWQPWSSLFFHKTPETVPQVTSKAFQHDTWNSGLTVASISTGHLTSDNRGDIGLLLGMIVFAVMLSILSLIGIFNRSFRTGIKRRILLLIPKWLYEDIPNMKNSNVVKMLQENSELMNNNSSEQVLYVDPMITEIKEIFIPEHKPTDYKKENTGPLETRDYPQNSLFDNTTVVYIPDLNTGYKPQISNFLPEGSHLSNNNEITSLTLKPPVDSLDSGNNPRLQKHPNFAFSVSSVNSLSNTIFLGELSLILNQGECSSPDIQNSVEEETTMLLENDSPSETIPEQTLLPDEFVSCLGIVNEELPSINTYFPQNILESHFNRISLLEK
assayRemarks: IL23R Reporter Assay
Assay type: cell-based
studyConditions: HEK293 cells containing IL-23R, IL-12RP1 and STAT-inducible firefly luciferase reporter; 10 ng/mL IL-23 (EC90); 5 h at 37° C.; read-out: IL23R Reporter Assay
endpointName: IC50 (nM)

- CC(=O)NC(COCCOCC[N+](C)(C)C)C(=O)N[C@@H]1C(=O)N[C@@H](CC(=O)N(C)C)C(=O)N[C@@H]([C@@H](C)O)C(=O)N[C@@H](Cc2c[nH]c3c(C)cccc23)C(=O)N[C@@H](CCCCN(C)C(C)=O)C(=O)N[C@H](C(=O)N[C@@H](Cc2ccc(OCCOCCOCC[N+](C)(C)C)cc2)C(=O)N[C@@H](Cc2ccc3ccccc3c2)C(=O)NC2(C(=O)N[C@@H](CCCCN(C)C(C)=O)C(=O)N[C@@H](CC(N)=O)C(=O)N[C@@H](Cc3cccnc3)C(=O)N(C)CC(=O)N(C)C)CCOCC2)C(C)(C)SSC1(C)C (relative stereo) [compound 319]: 1.8

----------
Catalogue of compounds with associated EPSA
assayRemarks: Exposed Polar Surface Area (EPSA)
Assay type: physicochemical
studyConditions: SFC on Chirex 3014 column; sample 1 mM DMSO stock; read-out: EPSA
Positions of bridges follow the written chain, without caps; N, C: chain ends. Non-standard residues stand in square brackets, D forms with d. Residues, ends and D or L forms follow the SMILES beside them. *: point of attachment. Trp(7-Me) = Cc1cccc2c(C[C@H](N)C(=O)O)c[nH]c12; 2Nal = N[C@@H](Cc1ccc2ccccc2c1)C(=O)O; 3Pal = N[C@@H](Cc1cccnc1)C(=O)O; Pen = CC(C)(S)[C@H](N)C(=O)O; αMeK = C[C@](N)(CCCCN)C(=O)O; Thp = NC1(C(=O)O)CCOCC1; Me2NCH2CH2 = CN(C)CC*; Sar = CNCC(=O)O
endpointName: EPSA (A^2)

- CC(=O)NCCCC[C@@H]1NC(=O)[C@H](Cc2c[nH]c3c(C)cccc23)NC(=O)[C@H]([C@@H](C)O)NC(=O)[C@H](CC(N)=O)NC(=O)[C@@H](NC(=O)CCOCCOCC[N+](C)(C)C)C(C)(C)SSC(C)(C)[C@@H](C(=O)N[C@@H](Cc2ccc(OCCCCC[N+](C)(C)C)cc2)C(=O)N[C@@H](Cc2ccc3ccccc3c2)C(=O)NC2(C(=O)N[C@@H](CCC(=O)O)C(=O)N[C@@H](CC(N)=O)C(=O)N[C@@H](Cc3cncc(C)c3)C(=O)N(C)CC(N)=O)CCOCC2)NC1=O: 179
- CC(=O)NCCCC[C@@H]1NC(=O)[C@H](Cc2c[nH]c3c(C)cccc23)NC(=O)[C@H]([C@@H](C)O)NC(=O)[C@H](CC(N)=O)NC(=O)[C@@H](NC(=O)COc2ccc(-c3ccc(F)cc3F)cc2C(=O)O)C(C)(C)SSC(C)(C)[C@@H](C(=O)N[C@@H](Cc2ccc(OCCCCC[N+](C)(C)C)cc2)C(=O)N[C@@H](Cc2ccc3ccccc3c2)C(=O)NC2(C(=O)N[C@@H](CCCCNC(=O)CCCc3ccc(I)cc3)C(=O)N[C@@H](CC(N)=O)C(=O)N[C@@H](Cc3cccnc3)C(=O)N(C)CC(N)=O)CCOCC2)NC1=O: 198
- CC(=O)NCCCC[C@@H]1NC(=O)[C@H](Cc2c[nH]c3c(C)cccc23)NC(=O)[C@H]([C@@H](C)O)NC(=O)[C@H](CC(N)=O)NC(=O)[C@@H](NC(C)=O)C(C)(C)SSC(C)(C)[C@@H](C(=O)N[C@@H](Cc2ccc(OCCCCC[N+](C)(C)C)cc2)C(=O)N[C@@H](Cc2ccc3ccccc3c2)C(=O)NC2(C(=O)N[C@@H](CCCCNC(=O)CCCCCc3ccc(I)cc3)C(=O)N[C@@H](CC(N)=O)C(=O)N[C@@H](Cc3cccnc3)C(=O)N(C)CC(N)=O)CCOCC2)NC1=O: 168
- CC(=O)NCCCC[C@@H]1NC(=O)[C@H](Cc2c[nH]c3c(C)cccc23)NC(=O)[C@H]([C@@H](C)O)NC(=O)[C@H](CC(N)=O)NC(=O)[C@@H](NC(=O)CCCc2ccc(I)cc2)C(C)(C)SSC(C)(C)[C@@H](C(=O)N[C@@H](Cc2ccc(OCCCCC[N+](C)(C)C)cc2)C(=O)N[C@@H](Cc2ccc3ccccc3c2)C(=O)NC2(C(=O)N[C@@H](CCCCNC(=O)COc3ccc(-c4ccc(F)cc4F)cc3C(=O)O)C(=O)N[C@@H](CC(N)=O)C(=O)N[C@@H](Cc3cccnc3)C(=O)N(C)CC(N)=O)CCOCC2)NC1=O: 195
- CC(=O)NCCCC[C@@H]1NC(=O)[C@H](Cc2c[nH]c3c(C)cccc23)NC(=O)[C@H]([C@@H](C)O)NC(=O)[C@H](CC(N)=O)NC(=O)[C@@H](NC(C)=O)C(C)(C)SSC(C)(C)[C@@H](C(=O)N[C@@H](Cc2ccc(OCCN(C)C)cc2)C(=O)N[C@@H](Cc2ccc3ccccc3c2)C(=O)N[C@@](C)(CCCCN)C(=O)N[C@@H](CCCCNC(C)=O)C(=O)N[C@@H](CC(N)=O)C(=O)NC2(C(N)=O)CCOCC2)NC1=O [compound 31] (Ac-[Pen]NT[Trp(7-Me)]K(Ac)[Pen]Y(Me2NCH2CH2)[2Nal][αMeK]K(Ac)N[Thp]-NH2; disulfide 1-6): 158
- CC(=O)NCCCC[C@@H]1NC(=O)[C@H](Cc2c[nH]c3c(C)cccc23)NC(=O)[C@H]([C@@H](C)O)NC(=O)[C@H](CC(N)=O)NC(=O)[C@@H](NC(C)=O)C(C)(C)SSC(C)(C)[C@@H](C(=O)N[C@@H](Cc2ccc(OCCN)cc2)C(=O)N[C@@H](Cc2ccc3ccccc3c2)C(=O)N[C@@](C)(CCCCN)C(=O)N[C@H](CCCCNC(C)=O)C(=O)N[C@@H](CC(N)=O)C(=O)N[C@H](CC(C)C)C(=O)N(C)[C@H](Cc2ccc(O)cc2)C(N)=O)NC1=O (racemic): 170
- CC(=O)N[C@@H]1C(=O)N[C@@H](C)C(=O)N[C@@H]([C@@H](C)O)C(=O)N[C@@H](Cc2c[nH]c3c(C)cccc23)C(=O)N[C@@H](C)C(=O)N[C@H](C(=O)N[C@@H](Cc2ccc(OCCN(C)C)cc2)C(=O)N[C@@H](Cc2ccc3ccccc3c2)C(=O)NC2(C(=O)N[C@@H](C)C(=O)N[C@@H](CC(N)=O)C(=O)N[C@@H](Cc3cccnc3)C(=O)N(C)CC(=O)N(C)C)CCOCC2)C(C)(C)SSC1(C)C [compound 121] (Ac-[Pen]AT[Trp(7-Me)]A[Pen]Y(Me2NCH2CH2)[2Nal][Thp]AN[3Pal][Sar]-NMe2; disulfide 1-6): 145
- CC(=O)NCCCC[C@@H]1NC(=O)[C@H](Cc2c[nH]c3c(-c4cccc(NC(C)=O)c4)cccc23)NC(=O)[C@H]([C@@H](C)O)NC(=O)[C@H](CC(N)=O)NC(=O)[C@@H](NC(C)=O)C(C)(C)SSC(C)(C)[C@@H](C(=O)N[C@@H](Cc2ccc(OCCCCC[N+](C)(C)C)cc2)C(=O)N[C@@H](Cc2ccc3ccccc3c2)C(=O)NC2(C(=O)N[C@@H](CCC(=O)O)C(=O)N[C@@H](CC(N)=O)C(=O)N[C@@H](Cc3cncc(C)c3)C(=O)N(C)CC(N)=O)CCOCC2)NC1=O: 178

----------
Listed molecules paired with reported IC50
tgt: IL-23R (Homo sapiens)
Construct: host or cells: HEK293
assayRemarks: IL23R Reporter Assay
Type: cell-based
studyConditions: HEK293 cells containing IL-23R, IL-12RP1 and STAT-inducible firefly luciferase reporter; 10 ng/mL IL-23 (EC90); 5 h at 37° C.; read-out: IL23R Reporter Assay
endpointName: IC50 (nM)

* CC(=O)N(C)CCCC[C@@H]1NC(=O)[C@H](Cc2c[nH]c3c(C)cccc23)NC(=O)[C@H]([C@@H](C)O)NC(=O)[C@H](CC(=O)N(C)C)NC(=O)[C@@H](NC(=O)CCOCCOCC[N+](C)(C)C)C(C)(C)SSC(C)(C)[C@@H](C(=O)N[C@@H](Cc2ccc(OCCN)cc2)C(=O)N[C@@H](Cc2ccc3ccccc3c2)C(=O)NC2(C(=O)N[C@@H](CCN(C)C(C)=O)C(=O)N[C@@H](CC(N)=O)C(=O)N[C@@H](Cc3cccnc3)C(=O)N(C)CC(=O)N(C)C)CCC(F)(F)C2)NC1=O (single isomer, unassigned) [compound 179] | 3
* CC(=O)NCCCC[C@@H]1NC(=O)[C@H](Cc2c[nH]c3c(-c4cccc(NC(C)=O)c4)cccc23)NC(=O)[C@H]([C@@H](C)O)NC(=O)[C@H](CC(N)=O)NC(=O)[C@@H](NC(=O)CCOCCOCC[N+](C)(C)C)C(C)(C)SSC(C)(C)[C@@H](C(=O)N[C@@H](Cc2ccc(OCCNC(=N)N)cc2)C(=O)N[C@@H](Cc2ccc3ccccc3c2)C(=O)NC2(C(=O)N[C@@H](CCCCN(C)C(C)=O)C(=O)N[C@@H](CC(N)=O)C(=O)N[C@@H](Cc3cncc(C)c3)C(=O)N(C)CC(N)=O)CCOCC2)NC1=O [compound 519] | 1.8
* CC(=O)N(C)CCCC[C@@H]1NC(=O)[C@H](Cc2c[nH]c3c(C)cccc23)NC(=O)[C@H]([C@@H](C)O)NC(=O)[C@H](CC(=O)N(C)C)NC(=O)[C@@H](NC(=O)CCOCCOCC[N+](C)(C)C)C(C)(C)SSC(C)(C)[C@@H](C(=O)NC(Cc2ccc(OCCN(CCOCC[N+](C)(C)C)CCOCC[N+](C)(C)C)cc2)C(=O)N[C@@H](Cc2ccc3ccccc3c2)C(=O)NC2(C(=O)N[C@@H](CCCCN(C)C(C)=O)C(=O)N[C@@H](CC(N)=O)C(=O)N[C@@H](Cc3cccnc3)C(=O)N(C)CC(=O)N(C)C)CCOCC2)NC1=O (some centres unmarked) [compound 265] | 6.4
* CC(=O)N[C@@H]1C(=O)N[C@@H](CC(=O)N(C)C)C(=O)N[C@@H]([C@@H](C)O)C(=O)N[C@@H](Cc2c[nH]c3c(C)cccc23)C(=O)N[C@@H](COCCOCC[N+](C)(C)C)C(=O)N[C@H](C(=O)N[C@@H](Cc2ccc(OCCOCCOCC[N+](C)(C)C)cc2)C(=O)N[C@@H](Cc2ccc3ccccc3c2)C(=O)NC2(C(=O)N[C@@H](CCCCN(C)C(C)=O)C(=O)N[C@@H](CC(N)=O)C(=O)N[C@@H](Cc3cccnc3)C(=O)N(C)CC(=O)N(C)C)CCOCC2)C(C)(C)SSC1(C)C (relative stereo) [compound 267] | 4.2
* CC(=O)NCCCC[C@H](NC(=O)C1(NC(=O)[C@H](Cc2ccc3ccccc3c2)NC(=O)[C@H](Cc2ccc(OCCN)cc2)NC(=O)[C@H]2NC(=O)[C@H](CCCCN(C)C(C)=O)NC(=O)[C@H](Cc3c[nH]c4c(C)cccc34)NC(=O)[C@H]([C@@H](C)O)NC(=O)[C@H](CC(N)=O)NC(=O)[C@@H](NC(=O)C(COCCOCC[N+](C)(C)C)NC(C)=O)C(C)(C)SSC2(C)C)CCOCC1)C(=O)N[C@@H](CC(N)=O)C(=O)N[C@@H](Cc1cccnc1)C(=O)N(C)CC(N)=O (mixture of isomers) [compound 554] | 3
* CC(=O)NCCCC[C@@H]1NC(=O)[C@H](Cc2c[nH]c3c(C)cccc23)NC(=O)[C@H]([C@@H](C)O)NC(=O)[C@H](CC(N)=O)NC(=O)[C@@H](NC(=O)COc2ccc(-c3ccc(F)cc3F)cc2C(=O)O)C(C)(C)SSC(C)(C)[C@@H](C(=O)N[C@@H](Cc2ccc(OCCCCC[N+](C)(C)C)cc2)C(=O)N[C@@H](Cc2ccc3ccccc3c2)C(=O)NC2(C(=O)N[C@@H](CCCCNC(=O)CCCc3ccc(I)cc3)C(=O)N[C@@H](CC(N)=O)C(=O)N[C@@H](Cc3cccnc3)C(=O)N(C)CC(N)=O)CCOCC2)NC1=O [compound 524] | 54
* CC(=O)NCCCC[C@@H]1NC(=O)[C@H](Cc2c[nH]c3c(-c4cccc(NC(C)=O)c4)cccc23)NC(=O)[C@H]([C@@H](C)O)NC(=O)[C@H](CC(N)=O)NC(=O)[C@@H](NC(C)=O)C(C)(C)SSC(C)(C)[C@@H](C(=O)N[C@@H](Cc2ccc(OCCCCC[N+](C)(C)C)cc2)C(=O)N[C@@H](Cc2ccc3ccccc3c2)C(=O)NC2(C(=O)N[C@@H](CCCCN(C)C(C)=O)C(=O)N[C@@H](CC(N)=O)C(=O)N[C@@H](Cc3cncc(C)c3)C(=O)N(C)CC(N)=O)CCOCC2)NC1=O [compound 502] | 3.8
* CC(=O)NCCCC[C@@H]1NC(=O)[C@H](Cc2c[nH]c3c(C)cccc23)NC(=O)[C@H]([C@@H](C)O)NC(=O)[C@H](CC(N)=O)NC(=O)[C@@H](NC(C)=O)C(C)(C)SSC(C)(C)[C@@H](C(=O)N[C@@H](Cc2ccc(OCCCCC[N+](C)(C)C)cc2)C(=O)N[C@@H](Cc2ccc3ccccc3c2)C(=O)NC2(C(=O)N[C@@H](CCCCNC(=O)COc3ccc(-c4ccc(F)cc4F)cc3C(=O)O)C(=O)N[C@@H](CC(N)=O)C(=O)N[C@@H](Cc3cccnc3)C(=O)N(C)CC(N)=O)CCOCC2)NC1=O [compound 526] | 6.1
